B1: Protein S100-G, residues 1 to 79; numbered along this chain, P02633 (parent)
chain: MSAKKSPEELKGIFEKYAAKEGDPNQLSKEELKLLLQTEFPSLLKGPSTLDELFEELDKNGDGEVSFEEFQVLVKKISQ

variants of: B1; experiment: abundance fitness (aPCA) (normalised: wild type 0, dead -1); higher = more abundant; growth selection in yeast, the domain comes from the species named; settings: Bos taurus
readout: abundance fitness

Req: Please look up its abundance fitness: MSAKKSPEELKGIFEKYAAKEGDPNQLSKEELKLLLQTEFPSLLKGPSTLDELFEELDKNGDSEVSFEEFQVLVKKISQ [G63S]
Resp: -0.06

Req: Please look up its abundance fitness: MSAKKSPEELKGIFEKYAAKEGDPNQLSKEELKLLLQTEFPDLLKGPSTLDELFEELDKNGDGEVSFEEFQVLVKKISQ [S42D]
Resp: -0.046

Req: Please look up its abundance fitness: MSAKKSPEELKGIFEKYAAKEGDPNQLSKEELKLLGQTEFPSLLKGPSTLDELFEELDKNGDGEVSFEEFQVLVKKISQ [L36G]
Resp: -0.589

Req: Please look up its abundance fitness: MSAKMSPEELKGIFEKYAAKEGDPNQLSKEELKLLLQTEFPSLLKGPSTLDELFEELDKNGDGEVSFEEFQVLVKKISQ [K5M]
Resp: -0.017

Req: Please look up its abundance fitness: MSAKKSPEELKGIFEKYAAKEGDPNQLSKEELKLLLQTFFPSLLKGPSTLDELFEELDKNGDGEVSFEEFQVLVKKISQ [E39F]
Resp: -0.345

Req: Please look up its abundance fitness: MSAKKSPEELKGIFEKYAAKEGDPNQLSKEELKLLLQTEFPSLLKGPSTLFELFEELDKNGDGEVSFEEFQVLVKKISQ [D51F]
Resp: -0.121

Req: Please look up its abundance fitness: MSAKKSPEERKGIFEKYAAKEGDPNQLSKEELKLLLQTEFPSLLKGPSTLDELFEELDKNGDGEVSFEEFQVLVKKISQ [L10R]
Resp: -0.488

Req: Please look up its abundance fitness: MSAKKSPEPLKGIFEKYAAKEGDPNQLSKEELKLLLQTEFPSLLKGPSTLDELFEELDKNGDGEVSFEEFQVLVKKISQ [E9P]
Resp: -0.211

Req: Please look up its abundance fitness: MSAKKSPEELKGIFEKYAAKEGDPNQLSKEELKLLLQTEFPSLLKGPSTLDEFFEELDKNGDGEVSFEEFQVLVKKISQ [L53F]
Resp: 0.077

Req: Please look up its abundance fitness: MSAKKSPEELKGIFEKYAAKEGDPNQLSKEELKLLLQTEFPSLLKGPSTLDELFEELDKNGDGEVSFEEKQVLVKKISQ [F70K]
Resp: -0.965

Req: Please look up its abundance fitness: MSAKKSPEELKGIFEKYAAKELDPNQLSKEELKLLLQTEFPSLLKGPSTLDELFEELDKNGDGEVSFEEFQVLVKKISQ [G22L]
Resp: -0.319

Req: Please look up its abundance fitness: MSAKKSPEELKGIFEKYAAKEGDPNQLSKEELKLLLQTEFPSLLKGPSTLDELFEELDKNFDGEVSFEEFQVLVKKISQ [G61F]
Resp: -0.006

Req: Please look up its abundance fitness: MSAKKSPEELKGIFEKWAAKEGDPNQLSKEELKLLLQTEFPSLLKGPSTLDELFEELDKNGDGEVSFEEFQVLVKKISQ [Y17W]
Resp: -0.017

Req: Please look up its abundance fitness: MSAKKSPEELKGIFEKYAAKEKDPNQLSKEELKLLLQTEFPSLLKGPSTLDELFEELDKNGDGEVSFEEFQVLVKKISQ [G22K]
Resp: -0.037

Req: Please look up its abundance fitness: MSAKKSPEELKGIFEKYAAKEGDPNQLSKEELKLLLQTEFPSLLKGPSTLDELFEELDKNGDGEVSFEEFQVLVKCISQ [K76C]
Resp: -0.29

Req: Please look up its abundance fitness: MSAKKSPKELKGIFEKYAAKEGDPNQLSKEELKLLLQTEFPSLLKGPSTLDELFEELDKNGDGEVSFEEFQVLVKKISQ [E8K]
Resp: -0.004

Req: Please look up its abundance fitness: MSAKKSPEELKGRFEKYAAKEGDPNQLSKEELKLLLQTEFPSLLKGPSTLDELFEELDKNGDGEVSFEEFQVLVKKISQ [I13R]
Resp: -0.409

Req: Please look up its abundance fitness: MSAKKSPEELKGIFEKYAAKEGDPNQLSKEELKLLLQTEFPSLLKGPSTLDALFEELDKNGDGEVSFEEFQVLVKKISQ [E52A]
Resp: -0.005

Req: Please look up its abundance fitness: MSAKKSPEELKEIFEKYAAKEGDPNQLSKEELKLLLQTEFPSLLKGPSTLDELFEELDKNGDGEVSFEEFQVLVKKISQ [G12E]
Resp: -0.165

Req: Please look up its abundance fitness: MSAKKSPEELKGIFEKYAAKEGDPNQLSKEELKLLLQTEFPSLLKGPSTLDELFEELPKNGDGEVSFEEFQVLVKKISQ [D58P]
Resp: -0.078

Req: Please look up its abundance fitness: MSAGKSPEELKGIFEKYAAKEGDPNQLSKEELKLLLQTEFPSLLKGPSTLDELFEELDKNGDGEVSFEEFQVLVKKISQ [K4G]
Resp: -0.223

Req: Please look up its abundance fitness: MSAKKSPEELKGIFEKYAAKEGDPNQLSKEELKLLLQTEFPSLLKGPSTLDELFEELEKNGDGEVSFEEFQVLVKKISQ [D58E]
Resp: -0.109

Req: Please look up its abundance fitness: MSAKKSPEELKGIFEKYAAKEGDPNFLSKEELKLLLQTEFPSLLKGPSTLDELFEELDKNGDGEVSFEEFQVLVKKISQ [Q26F]
Resp: -0.043

Req: Please look up its abundance fitness: MSAKKSPEELKGIFEKYAAKEGDPNQLSKEELKLLLQTEFPSLLKGPSTLDELFEELDKNGDGEVSCEEFQVLVKKISQ [F67C]
Resp: -0.05

Req: Please look up its abundance fitness: MSAKKSPEELKGIFEKYAAKEGDPNQLSKEELKLLLQTEFPSLLKDPSTLDELFEELDKNGDGEVSFEEFQVLVKKISQ [G46D]
Resp: 0.028

Req: Please look up its abundance fitness: MSAKKSPEELKGIFEKYAAKEGDPNQLSKEELKLLLQTEFPSLLKGPSTLDELFEELDKNGDGEVSFEEFQVLVKKKSQ [I77K]
Resp: -0.148

Req: Please look up its abundance fitness: MSAKKSPEELKGIFEKYAAKEGDPNQLSKEELKLLLQTEFPSLLKGPSHLDELFEELDKNGDGEVSFEEFQVLVKKISQ [T49H]
Resp: 0.047

Req: Please look up its abundance fitness: MSAKKSPEELKGIFEKYAAKEGDPNQLSKEELKLLLQTEFPSLLKGPSTLDELFEELDKNGDGEVSFEEFQVLVKKASQ [I77A]
Resp: -0.169

Req: Please look up its abundance fitness: MSAKKSPEELKGIFEKYAAKEGDPNQLSKEELKLLLQTEFPSLLKGPQTLDELFEELDKNGDGEVSFEEFQVLVKKISQ [S48Q]
Resp: 0.086

Req: Please look up its abundance fitness: MSAKKSPEELKGIFEKYAAKEGDPNQLSKEELKLLLQTLFPSLLKGPSTLDELFEELDKNGDGEVSFEEFQVLVKKISQ [E39L]
Resp: -0.207

Req: Please look up its abundance fitness: MSAKKSPEELKGIFEKYAAKEGDPNQLSKEELKLLLQTEFPSLLKGPSTLDELFEELDVNGDGEVSFEEFQVLVKKISQ [K59V]
Resp: 0.087

Req: Please look up its abundance fitness: MSAKKSPEELKGIFEKYAAKEGDPNQLSKEELKLLLQTEFPSLLKGPSTLDELFEELDKNGDGEVSFEEFQVIVKKISQ [L73I]
Resp: -0.016

Req: Please look up its abundance fitness: MSAKKSPEELKGIFEKYAAKEGDPNQLSKEELKLLLQTEFPSLLKGPSTLDELFEELDKWGDGEVSFEEFQVLVKKISQ [N60W]
Resp: -0.091

Req: Please look up its abundance fitness: MSAKKSPEELKGIFEKYAAKEGDPNQLSFEELKLLLQTEFPSLLKGPSTLDELFEELDKNGDGEVSFEEFQVLVKKISQ [K29F]
Resp: 0.017

Req: Please look up its abundance fitness: MSAKKSPEELKGIFEKYAAKEGDPNQLSKEELKLLLQTEFLSLLKGPSTLDELFEELDKNGDGEVSFEEFQVLVKKISQ [P41L]
Resp: -0.072

Req: Please look up its abundance fitness: MSAKKSTEELKGIFEKYAAKEGDPNQLSKEELKLLLQTEFPSLLKGPSTLDELFEELDKNGDGEVSFEEFQVLVKKISQ [P7T]
Resp: 0.066

Req: Please look up its abundance fitness: MSAKKSPEELKGIFEKYAALEGDPNQLSKEELKLLLQTEFPSLLKGPSTLDELFEELDKNGDGEVSFEEFQVLVKKISQ [K20L]
Resp: -0.067

Req: Please look up its abundance fitness: MSAKKSPEELKGIFEKYAAKEGDPNQLSKLELKLLLQTEFPSLLKGPSTLDELFEELDKNGDGEVSFEEFQVLVKKISQ [E30L]
Resp: -0.053

Req: Please look up its abundance fitness: MSAKKSPEELKGIFEKCAAKEGDPNQLSKEELKLLLQTEFPSLLKGPSTLDELFEELDKNGDGEVSFEEFQVLVKKISQ [Y17C]
Resp: -0.295

Req: Please look up its abundance fitness: MSAKKSPEELKGIFEKYAAKEGDPNQLSKEELKLLLQTEFPELLKGPSTLDELFEELDKNGDGEVSFEEFQVLVKKISQ [S42E]
Resp: 0.116

Req: Please look up its abundance fitness: MSAKKSPEELKGIFEKYAAKEGDPNQLSKEELKLLLQTEFPSLLKGPSTLDELFEELDKNGDGEVSFEEFQVLVDKISQ [K75D]
Resp: -0.063

Req: Please look up its abundance fitness: MSAKKSPEELKGIFEKYAAKEGDPNQLSKEELKLLLQTEFPSLLKGPSTLDELFEELDKNGDGEVSFEEIQVLVKKISQ [F70I]
Resp: -0.534

Req: Please look up its abundance fitness: MSAKKSPEELKGIFEKYAAKEGDPNQLSKEELKLLLQFEFPSLLKGPSTLDELFEELDKNGDGEVSFEEFQVLVKKISQ [T38F]
Resp: -0.002

Req: Please look up its abundance fitness: MSAKKSPEELKGIFEKYAAKEGDPNQLSKEELKLLLQTEFPSLLKGPSTLDELFEELDKNGDGEVSFEEFQVTVKKISQ [L73T]
Resp: -0.071

Req: Please look up its abundance fitness: MSAKKSPEELKGIFEKYAAKEGDPHQLSKEELKLLLQTEFPSLLKGPSTLDELFEELDKNGDGEVSFEEFQVLVKKISQ [N25H]
Resp: 0.02

Req: Please look up its abundance fitness: MSAKKSPEELKGIFEKYAAKEGDPNQLSKEELKLLLQTEFPSLLKGPSFLDELFEELDKNGDGEVSFEEFQVLVKKISQ [T49F]
Resp: 0.032
